system: Cytochrome P450 1A2 (Homo sapiens, UniProt P05177)
Sequence (P05177 whole entry): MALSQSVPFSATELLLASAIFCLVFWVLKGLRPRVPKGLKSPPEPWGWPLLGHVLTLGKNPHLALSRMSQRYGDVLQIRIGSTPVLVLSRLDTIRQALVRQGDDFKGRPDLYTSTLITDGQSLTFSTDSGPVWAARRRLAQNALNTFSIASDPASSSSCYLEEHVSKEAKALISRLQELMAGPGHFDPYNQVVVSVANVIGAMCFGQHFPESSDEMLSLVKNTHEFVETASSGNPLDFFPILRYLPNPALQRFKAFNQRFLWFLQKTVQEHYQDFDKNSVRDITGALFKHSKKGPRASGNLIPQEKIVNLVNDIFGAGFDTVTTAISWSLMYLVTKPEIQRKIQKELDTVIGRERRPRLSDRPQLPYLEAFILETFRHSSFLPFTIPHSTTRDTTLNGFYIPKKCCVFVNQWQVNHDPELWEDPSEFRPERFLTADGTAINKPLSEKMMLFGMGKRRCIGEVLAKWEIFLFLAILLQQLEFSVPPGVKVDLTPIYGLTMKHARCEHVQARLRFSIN
measured_metric: AC50

| molecule | system | AC50 |
| --- | --- | --- |
| O=C(NCCN1CCOCC1)c1csc2c1CCCCC2 | Cytochrome P450 1A2 (Homo sapiens, UniProt P05177) | 20 µM (inconclusive) |
| CCCCCCCCCCCCCCCC[N+](C)(C)CCN(Cc1ccc(OC)cc1)c1ncccn1 | Cytochrome P450 1A2 (Homo sapiens, UniProt P05177) | 20 µM (inconclusive) |
| CCOc1ccccc1NC(=O)C(=O)NCC1CCCN1CC (stereo not drawn) | Cytochrome P450 1A2 (Homo sapiens, UniProt P05177) | 15.8 µM (inconclusive) |

Under Cytochrome P450 1A2 (Homo sapiens, UniProt P05177), report AC50 for CCNc1ncc2nc(CCc3ccccc3)c(=O)n(Cc3ccc(F)cc3)c2n1
3.16 µM (inconclusive)

Give reported AC50 for CN[C@H](CC(=O)O)C(=O)O (Cytochrome P450 1A2 (Homo sapiens, UniProt P05177))
39.8 µM (inconclusive)

Tell me AC50 of COCCn1c(=S)[nH]c2cc(C(=O)NC(C)C)ccc2c1=O when tested on Cytochrome P450 1A2 (Homo sapiens, UniProt P05177).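 Further: PubChem cytochrome P450 panel assay, CYP1A2 panel member.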
3.16 µM (inconclusive)

====

system: Histone-lysine N-methyltransferase NSD2 (Homo sapiens, UniProt O96028)
Sequence (O96028 whole entry): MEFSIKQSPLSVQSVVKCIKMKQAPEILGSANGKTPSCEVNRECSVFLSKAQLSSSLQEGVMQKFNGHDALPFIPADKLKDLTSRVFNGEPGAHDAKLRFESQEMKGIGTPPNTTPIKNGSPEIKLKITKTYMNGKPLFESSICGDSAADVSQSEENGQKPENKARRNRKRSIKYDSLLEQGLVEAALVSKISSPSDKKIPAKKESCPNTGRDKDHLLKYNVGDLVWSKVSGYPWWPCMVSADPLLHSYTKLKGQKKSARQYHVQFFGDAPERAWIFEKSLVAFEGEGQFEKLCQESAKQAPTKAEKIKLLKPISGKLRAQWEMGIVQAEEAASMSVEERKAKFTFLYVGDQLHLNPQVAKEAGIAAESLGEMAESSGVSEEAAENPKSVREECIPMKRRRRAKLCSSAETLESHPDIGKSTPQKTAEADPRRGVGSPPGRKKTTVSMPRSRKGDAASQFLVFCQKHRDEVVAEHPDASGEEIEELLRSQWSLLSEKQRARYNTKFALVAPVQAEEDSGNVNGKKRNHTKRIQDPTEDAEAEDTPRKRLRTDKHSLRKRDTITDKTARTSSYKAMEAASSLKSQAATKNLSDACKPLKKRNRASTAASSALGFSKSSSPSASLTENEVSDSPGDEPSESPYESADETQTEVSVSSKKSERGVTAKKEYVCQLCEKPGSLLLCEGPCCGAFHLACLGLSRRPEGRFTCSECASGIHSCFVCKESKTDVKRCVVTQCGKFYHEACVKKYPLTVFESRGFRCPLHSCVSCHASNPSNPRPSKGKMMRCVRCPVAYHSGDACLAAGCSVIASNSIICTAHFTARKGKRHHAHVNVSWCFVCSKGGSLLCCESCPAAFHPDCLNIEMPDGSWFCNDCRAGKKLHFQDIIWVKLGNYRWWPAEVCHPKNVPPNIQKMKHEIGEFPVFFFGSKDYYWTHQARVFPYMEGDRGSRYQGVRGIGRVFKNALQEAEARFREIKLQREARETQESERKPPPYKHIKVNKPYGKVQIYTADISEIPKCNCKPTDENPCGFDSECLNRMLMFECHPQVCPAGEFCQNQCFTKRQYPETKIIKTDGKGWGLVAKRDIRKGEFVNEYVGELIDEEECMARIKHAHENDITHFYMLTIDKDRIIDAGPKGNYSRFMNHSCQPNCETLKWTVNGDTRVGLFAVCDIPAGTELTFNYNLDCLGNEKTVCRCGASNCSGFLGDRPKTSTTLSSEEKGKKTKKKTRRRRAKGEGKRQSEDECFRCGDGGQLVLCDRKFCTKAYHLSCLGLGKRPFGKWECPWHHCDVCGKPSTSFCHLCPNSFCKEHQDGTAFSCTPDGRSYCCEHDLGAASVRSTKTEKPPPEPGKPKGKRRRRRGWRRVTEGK
Type: biochemical
Active and inactive are the calls of the source.
Write down the outcome that applies. Available outcomes: active, inactive

| compound | answer_label |
| --- | --- |
| O=C1C(Cl)=C(N2CCN(CCO)CC2)C(=O)c2c(O)ccc(O)c21 | active |
| O=C(CN1CCN(S(=O)(=O)c2ccc(Cl)cc2)CC1)c1ccc(O)c(O)c1 | active |
| O=C1N/C(=N\c2ccccc2Cl)S/C1=C\c1cccc([N+](=O)[O-])c1O | active |
| N#CC1C(=O)Nc2cccnc21 (stereo not drawn) | inactive |
| COC1=C(C)C(=O)C2=C(C1=O)C1C3CC4=C(C(=O)C(OC)=C(C)C4=O)C(CNC(=O)C(C)=O)N3C(C#N)C(C2)N1C (stereo not drawn) | active |

Can you look up the reported call for CNCCCc1ccccc1 for me?
inactive

Which outcome was entered for the compound CN(C)C=O.O=C(O)c1ccccc1NS(=O)(=O)c1ccc(N/N=C/c2ccc(O)c(O)c2)c([N+](=O)[O-])c1 in this test?
active

Called result for CCCN(CCC)CCNC(=O)c1cc2c(-c3ccccc3F)nn(C)c2s1
inactive

====

assay_protocol: P. falciparum Dd2 growth inhibitors, dose response, SYBR Green, cherry-picked samples (AID 1159567)
Format: functional, cell-based
Calls of active or inactive are those of the source.
measured_metric: AC50

// solved cases for AC50 follow
| given_smiles | experimental_result |
| --- | --- |
| O=C(c1ccccc1F)N1C[C@H]2[C@@H](c3ccccc31)[C@@H](CO)N2C(=O)c1ccc(F)cc1 | 35200 nM (active) |
| COc1cc(CN2C[C@@H]3N[C@H](C2)[C@@H]3c2ccc(/C=C/c3ccccc3)cc2)cc(OC)c1 | 2380 nM (active) |
| COc1ccc2c3c(n(C)c2c1)[C@H](CO)N(C(=O)Nc1ccc(F)cc1)CC31CN(C(=O)c2ccc3c(c2)OCO3)C1 | 2680 nM (active) |

Consider the record given below.
Using known records, supply AC50 for CO[C@@H]1CN(C)C(=O)c2ccc(NC(=O)c3nc4ccccc4s3)cc2OC[C@@H](C)N(Cc2ccncc2)C[C@H]1C
2620 nM (active)

Recorded values, source ChEMBL document CHEMBL1201862.
